B1: HDV Ribozyme (parent)
chain: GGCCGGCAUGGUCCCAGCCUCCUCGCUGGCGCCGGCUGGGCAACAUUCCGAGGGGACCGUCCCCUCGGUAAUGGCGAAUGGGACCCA

Variants of: B1
Test: self-cleavage, relative activity (ratio to wild type); higher = more cleavage; co-transcriptional

mutation_string: C44U G76C
self-cleavage: 0.725
//
mutation_string: G54U U79A
self-cleavage: 0.982
//
mutation_string: C14A G74C
self-cleavage: 0.185
//
mutation_string: U9C C26U
self-cleavage: 1.17
//
mutation_string: G38A G82C
self-cleavage: 0.262
//
mutation_string: G6A G55U
self-cleavage: 0.831
//
mutation_string: G55A G81U
self-cleavage: 0.34
//
mutation_string: C24A C84G
self-cleavage: 0.563
//
mutation_string: C49G C66G
self-cleavage: 0.665
//
mutation_string: U60G G81U
self-cleavage: 0.123
//
mutation_string: U9G A16U
self-cleavage: 1.14
//
mutation_string: C7A G25C
self-cleavage: 0
//
mutation_string: U47G U65G
self-cleavage: 0.95
//
mutation_string: C24U C41G
self-cleavage: 0.437
//
mutation_string: C63U A83C
self-cleavage: 0.502
//
mutation_string: C15G U79G
self-cleavage: 0.391
//
mutation_string: C33A A42U
self-cleavage: 0.0314
//
mutation_string: G29U G54C
self-cleavage: 0.0282
//
mutation_string: A56G U79C
self-cleavage: 0.242
//
mutation_string: G10U U72C
self-cleavage: 0.193
//
mutation_string: C33G U47G
self-cleavage: 0.0723
//
mutation_string: G54A C58U
self-cleavage: 1.22
//
mutation_string: G10C C57G
self-cleavage: 0.81
//
mutation_string: U27A A83G
self-cleavage: 0.723
//
mutation_string: C44U C75G
self-cleavage: 0.106
//
mutation_string: G5C G29A
self-cleavage: 0.147
//
mutation_string: C57A C85A
self-cleavage: 1.05
//
mutation_string: G52A A71C
self-cleavage: 0.744
//
mutation_string: U46C G73A
self-cleavage: 0.475
//
mutation_string: C14A U27A
self-cleavage: 0.739
//
mutation_string: C24G G68A
self-cleavage: 0.22
//
mutation_string: U65C U72C
self-cleavage: 0.609
//
mutation_string: G28U G52U
self-cleavage: 0.211
//
mutation_string: U69G C86A
self-cleavage: 0.917
//
mutation_string: U37G G76U
self-cleavage: 0.104
//
mutation_string: C32A U69C
self-cleavage: 0.161
//
mutation_string: G59U U60G
self-cleavage: 0.88
//
mutation_string: C49A A78U
self-cleavage: 0.248
//
mutation_string: C36G C66U
self-cleavage: 0.0997
//
mutation_string: G29C U37G
self-cleavage: 0.128
//
mutation_string: G17C A83U
self-cleavage: 0.256
//
mutation_string: G34A G73A
self-cleavage: 0.128
//
mutation_string: C48U A70C
self-cleavage: 0.649
//
mutation_string: C15A A77C
self-cleavage: 0.0978
//
mutation_string: C36A C44A
self-cleavage: 0.19
//
mutation_string: G11U G76C
self-cleavage: 0.532
